Subject Of Test: PI3K p110 beta/p85 alpha (Homo sapiens, UniProt P42338)
Sequence (P27986 whole entry): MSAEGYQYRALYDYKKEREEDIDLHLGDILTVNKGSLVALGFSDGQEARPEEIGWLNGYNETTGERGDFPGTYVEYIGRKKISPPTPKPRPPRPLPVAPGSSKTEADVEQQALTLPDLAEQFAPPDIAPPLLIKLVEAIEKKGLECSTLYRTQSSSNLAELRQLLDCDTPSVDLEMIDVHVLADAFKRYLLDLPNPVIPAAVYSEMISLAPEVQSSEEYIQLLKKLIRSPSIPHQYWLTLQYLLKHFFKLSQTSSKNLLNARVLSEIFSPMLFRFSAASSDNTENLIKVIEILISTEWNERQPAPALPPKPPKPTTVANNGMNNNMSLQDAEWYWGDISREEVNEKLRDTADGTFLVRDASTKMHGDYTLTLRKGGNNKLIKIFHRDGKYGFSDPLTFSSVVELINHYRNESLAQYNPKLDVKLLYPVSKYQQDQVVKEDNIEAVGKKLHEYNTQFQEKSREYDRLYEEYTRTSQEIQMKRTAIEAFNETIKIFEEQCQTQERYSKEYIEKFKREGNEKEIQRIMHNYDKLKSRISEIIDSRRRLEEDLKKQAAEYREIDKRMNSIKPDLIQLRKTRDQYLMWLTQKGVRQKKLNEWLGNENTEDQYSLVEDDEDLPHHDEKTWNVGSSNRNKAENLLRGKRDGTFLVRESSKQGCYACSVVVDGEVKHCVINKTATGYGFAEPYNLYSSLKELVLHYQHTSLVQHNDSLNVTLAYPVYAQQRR
Sequence (P42338 whole entry): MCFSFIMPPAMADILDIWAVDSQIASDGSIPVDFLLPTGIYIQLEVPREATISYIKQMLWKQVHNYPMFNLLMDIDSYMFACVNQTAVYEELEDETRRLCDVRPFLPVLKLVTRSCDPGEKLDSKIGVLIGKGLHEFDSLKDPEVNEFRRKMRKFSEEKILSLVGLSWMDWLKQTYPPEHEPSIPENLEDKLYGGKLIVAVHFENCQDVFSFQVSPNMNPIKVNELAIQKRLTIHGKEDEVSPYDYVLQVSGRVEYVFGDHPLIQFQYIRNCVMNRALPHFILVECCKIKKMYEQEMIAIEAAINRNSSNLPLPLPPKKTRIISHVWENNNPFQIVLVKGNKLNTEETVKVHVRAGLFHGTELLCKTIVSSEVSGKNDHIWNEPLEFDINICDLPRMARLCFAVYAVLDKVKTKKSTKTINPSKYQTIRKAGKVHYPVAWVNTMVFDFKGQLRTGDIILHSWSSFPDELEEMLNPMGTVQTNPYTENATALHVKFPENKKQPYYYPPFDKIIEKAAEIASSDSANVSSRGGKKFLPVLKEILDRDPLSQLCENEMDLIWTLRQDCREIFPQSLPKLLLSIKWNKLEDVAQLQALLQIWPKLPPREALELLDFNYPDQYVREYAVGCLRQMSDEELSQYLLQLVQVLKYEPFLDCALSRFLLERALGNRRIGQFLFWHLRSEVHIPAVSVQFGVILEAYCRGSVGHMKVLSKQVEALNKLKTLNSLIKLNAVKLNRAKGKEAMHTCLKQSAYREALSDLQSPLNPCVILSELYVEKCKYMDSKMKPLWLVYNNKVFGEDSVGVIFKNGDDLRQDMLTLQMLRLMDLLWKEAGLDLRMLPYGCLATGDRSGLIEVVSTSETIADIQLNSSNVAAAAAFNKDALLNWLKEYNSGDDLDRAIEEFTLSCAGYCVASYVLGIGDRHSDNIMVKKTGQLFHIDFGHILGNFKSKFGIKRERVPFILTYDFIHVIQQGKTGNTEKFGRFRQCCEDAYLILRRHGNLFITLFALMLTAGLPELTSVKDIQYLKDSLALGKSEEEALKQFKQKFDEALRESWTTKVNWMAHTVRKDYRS
Measurement Protocol: Inhibition of N-terminal His6-tagged recombinant full-length human p110beta/untagged recombinant full length p85alpha expressed in baculovirus infected Sf21 cells using phosphatidylinositol as substrate in presence of gamma-32P-ATP after 5 mins by thin layer chromatographic method
pIC50: −log10 of the molar value.
Parameter Measured: pIC50

// below: answered compounds
Chemical Structure	Subject Of Test	pIC50
Cc1cccc2cc(Cn3nc(-c4cccc(O)c4)c4c(N)ncnc43)n(-c3ccccc3)c(=O)c12	PI3K p110 beta/p85 alpha (Homo sapiens, UniProt P42338)	< 5.00
Cc1cccc2cc(Cn3nc(-c4cc(O)cc(F)c4)c4c(N)ncnc43)n(-c3ccccc3Cl)c(=O)c12	PI3K p110 beta/p85 alpha (Homo sapiens, UniProt P42338)	> 6.00
Cc1cccc2cc(Cn3nc(I)c4c(N)ncnc43)n(C)c(=O)c12	PI3K p110 beta/p85 alpha (Homo sapiens, UniProt P42338)	< 5.00
Cc1cccc2cc(Cn3nc(/C=C4/SC(=O)NC4=O)c4c(N)ncnc43)n(-c3ccccc3F)c(=O)c12	PI3K p110 beta/p85 alpha (Homo sapiens, UniProt P42338)	> 5.00
Cc1cccnc1-n1c(Cn2nc(-c3ccc(Cl)c(O)c3)c3c(N)ncnc32)cc2cccc(C)c2c1=O	PI3K p110 beta/p85 alpha (Homo sapiens, UniProt P42338)	> 5.00

[in] Endpoint output: pIC50 of CC(=O)Nc1nc2ccc(-c3nn(Cc4cc5cccc(C)c5c(=O)n4C(C)C)c4ncnc(N)c34)cc2s1 . Value?
[out] > 5.00

[in] Endpoint output: pIC50 of CC(=O)Nc1nc2ccc(-c3nn(Cc4cc5cccc(C)c5c(=O)n4C4CCC4)c4ncnc(N)c34)cc2s1 . Value?
[out] > 6.00

[in] Endpoint output: pIC50 of Cc1cccc2cc(Cn3nc(-c4cccc(Cl)c4)c4c(N)ncnc43)n(-c3ccccc3F)c(=O)c12 . Value?
[out] < 5.00

###

Reported IC50 values are given for each entry in this list.
Subject Of Test: Phosphatidylinositol 4,5-bisphosphate 3-kinase catalytic subunit gamma isoform (Homo sapiens, UniProt P48736)
Sequence (P48736 whole entry, canonical isoform): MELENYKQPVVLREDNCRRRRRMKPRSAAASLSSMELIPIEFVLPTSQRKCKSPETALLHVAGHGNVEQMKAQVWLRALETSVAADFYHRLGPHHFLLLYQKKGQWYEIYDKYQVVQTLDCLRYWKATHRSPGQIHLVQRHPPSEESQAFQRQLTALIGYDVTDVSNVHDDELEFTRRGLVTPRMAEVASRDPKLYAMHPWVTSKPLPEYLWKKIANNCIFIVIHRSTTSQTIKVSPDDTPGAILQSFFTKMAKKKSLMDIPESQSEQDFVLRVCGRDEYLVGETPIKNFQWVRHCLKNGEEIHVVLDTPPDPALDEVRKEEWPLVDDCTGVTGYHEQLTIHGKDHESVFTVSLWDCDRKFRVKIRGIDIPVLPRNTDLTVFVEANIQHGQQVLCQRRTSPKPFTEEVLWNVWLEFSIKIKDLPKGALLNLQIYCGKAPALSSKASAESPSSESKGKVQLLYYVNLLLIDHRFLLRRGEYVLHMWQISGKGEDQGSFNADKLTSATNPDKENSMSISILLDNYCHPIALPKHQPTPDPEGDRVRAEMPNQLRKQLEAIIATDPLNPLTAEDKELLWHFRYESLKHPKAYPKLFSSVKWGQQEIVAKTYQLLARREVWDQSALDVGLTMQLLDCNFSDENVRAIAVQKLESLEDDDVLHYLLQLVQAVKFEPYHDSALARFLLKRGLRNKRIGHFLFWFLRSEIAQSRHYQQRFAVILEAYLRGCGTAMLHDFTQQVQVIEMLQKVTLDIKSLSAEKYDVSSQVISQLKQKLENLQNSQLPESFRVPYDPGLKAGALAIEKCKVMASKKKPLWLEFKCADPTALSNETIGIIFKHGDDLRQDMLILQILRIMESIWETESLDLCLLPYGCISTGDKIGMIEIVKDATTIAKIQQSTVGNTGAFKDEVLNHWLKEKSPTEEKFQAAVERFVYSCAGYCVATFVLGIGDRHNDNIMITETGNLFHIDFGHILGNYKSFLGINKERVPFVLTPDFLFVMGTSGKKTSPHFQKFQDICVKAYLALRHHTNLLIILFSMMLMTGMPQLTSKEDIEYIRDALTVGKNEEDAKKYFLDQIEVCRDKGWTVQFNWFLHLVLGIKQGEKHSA
Measurement Protocol: Inhibition of recombinant human C-terminal His6-tagged p110gamma expressed in insect cells using phosphatidylinositol as substrate in presence of gamma-32P-ATP after 5 mins by thin layer chromatographic method

// below: answered compounds
Compound	IC50
Cc1cccc2cc(Cn3nc(-c4cccc(O)c4)c4c(N)ncnc43)n(C3CCCC3)c(=O)c12	< 1000 nM
Cc1cccc2cc(Cn3nc(-c4cccc(F)c4)c4c(N)ncnc43)n(-c3ccccc3F)c(=O)c12	< 10000 nM
Cc1cccnc1-n1c(Cn2nc(-c3ccc4oc(N)nc4c3)c3c(N)ncnc32)cc2cccc(C)c2c1=O	< 100 nM

[in] Endpoint output: IC50 of Cc1cccc2cc(Cn3nc(Br)c4c(N)ncnc43)n(-c3ccccc3F)c(=O)c12 . Value?
[out] < 10000 nM

[in] Endpoint output: IC50 of Cc1cccc2cc(Cn3nc(-c4cn[nH]c4)c4c(N)ncnc43)n(-c3ccccc3F)c(=O)c12 . Value?
[out] < 1000 nM

###

Subject Of Test: PI3-kinase p110-alpha/p85-alpha (Homo sapiens, UniProt P42336)
Sequence (P42336 whole entry, one chain of several): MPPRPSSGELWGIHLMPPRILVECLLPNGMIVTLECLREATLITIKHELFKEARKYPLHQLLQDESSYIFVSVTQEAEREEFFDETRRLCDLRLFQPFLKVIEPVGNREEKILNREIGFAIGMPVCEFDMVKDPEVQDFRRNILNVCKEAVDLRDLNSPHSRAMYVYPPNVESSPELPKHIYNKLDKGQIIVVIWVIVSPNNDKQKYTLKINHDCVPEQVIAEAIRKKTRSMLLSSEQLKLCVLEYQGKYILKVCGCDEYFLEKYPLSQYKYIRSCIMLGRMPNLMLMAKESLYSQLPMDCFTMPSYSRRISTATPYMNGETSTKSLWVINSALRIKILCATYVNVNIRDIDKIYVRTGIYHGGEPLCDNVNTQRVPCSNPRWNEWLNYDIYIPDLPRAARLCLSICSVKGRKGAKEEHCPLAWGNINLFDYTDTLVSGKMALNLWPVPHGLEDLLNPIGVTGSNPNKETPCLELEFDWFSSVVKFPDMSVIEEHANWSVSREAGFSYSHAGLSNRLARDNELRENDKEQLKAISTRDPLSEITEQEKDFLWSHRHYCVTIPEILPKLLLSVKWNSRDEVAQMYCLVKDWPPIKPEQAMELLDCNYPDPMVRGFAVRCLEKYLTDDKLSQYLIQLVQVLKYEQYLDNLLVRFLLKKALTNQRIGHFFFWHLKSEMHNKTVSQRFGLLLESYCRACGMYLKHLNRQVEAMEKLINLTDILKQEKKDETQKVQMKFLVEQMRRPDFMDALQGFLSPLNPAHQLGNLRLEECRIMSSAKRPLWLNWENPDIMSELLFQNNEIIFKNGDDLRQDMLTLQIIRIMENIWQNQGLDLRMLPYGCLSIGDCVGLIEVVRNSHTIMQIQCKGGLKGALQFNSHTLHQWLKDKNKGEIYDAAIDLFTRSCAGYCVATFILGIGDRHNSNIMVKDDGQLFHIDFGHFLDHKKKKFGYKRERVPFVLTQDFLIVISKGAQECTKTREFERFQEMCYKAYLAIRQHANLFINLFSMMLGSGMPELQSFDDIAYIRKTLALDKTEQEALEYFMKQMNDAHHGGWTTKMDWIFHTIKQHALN
Measurement Protocol: Inhibition of N-terminal His6-tagged recombinant full-length human p110alpha/untagged recombinant full length human p85alpha expressed in baculovirus infected Sf21 cells using phosphatidylinositol as substrate in presence of gamma-32P-ATP after 5 mins by thin layer chromatographic method
Reported IC50 values are given for each entry in this list.

// below: answered compounds
Chemical Structure	IC50
Cc1cccc2cc(Cn3nc(Cl)c4c(N)ncnc43)n(-c3ccccc3F)c(=O)c12	> 10 µM
Cc1cccc2cc(Cn3nc(-c4cc(O)cc(F)c4)c4c(N)ncnc43)n(C3CCC3)c(=O)c12	< 10 µM
Cc1cccc2cc(Cn3nc(-c4cc(O)cc(F)c4)c4c(N)ncnc43)n(C(C)C)c(=O)c12	< 10 µM
Cc1cccc2cc(Cn3nc(I)c4c(N)ncnc43)n(C(C)C)c(=O)c12	> 10 µM
COc1cccc(-c2nn(Cc3cc4cccc(C)c4c(=O)n3-c3ccccc3C)c3ncnc(N)c23)c1	> 10 µM
Nc1ncnc2c1c(-c1cc(O)cc(F)c1)nn2Cc1cc2cccc(Cl)c2c(=O)n1C1CC1	< 100 µM
Cc1cccc2cc(Cn3nc(-c4cccc(O)c4)c4c(N)ncnc43)n(-c3ccccc3C(C)C)c(=O)c12	> 10 µM
Cc1cccc2cc(Cn3nc(I)c4c(N)ncnc43)n(C3CCCCC3)c(=O)c12	> 10 µM
Cc1ccccc1-n1c(Cn2nc(-c3cnn(C)c3)c3c(N)ncnc32)cc2cccc(C)c2c1=O	> 10 µM
CC(=O)Nc1nc2ccc(-c3nn(Cc4cc5cccc(C)c5c(=O)n4C(C)C)c4ncnc(N)c34)cc2s1	< 100 µM

[in] Kindly state the measured IC50 obtained for Cc1cccc2cc(Cn3nc(-c4cccc(O)c4)c4c(N)ncnc43)n(-c3ccccc3F)c(=O)c12 with PI3-kinase p110-alpha/p85-alpha (Homo sapiens, UniProt P42336).
[out] > 10 µM

[in] Kindly state the measured IC50 obtained for COc1ccccc1-n1c(Cn2nc(-c3cc(O)cc(F)c3)c3c(N)ncnc32)cc2cccc(C)c2c1=O with PI3-kinase p110-alpha/p85-alpha (Homo sapiens, UniProt P42336).
[out] < 10 µM

[in] Kindly state the measured IC50 obtained for Cc1cccc2cc(Cn3nc(Br)c4c(N)ncnc43)n(-c3ccccc3F)c(=O)c12 with PI3-kinase p110-alpha/p85-alpha (Homo sapiens, UniProt P42336).
[out] > 10 µM

[in] Kindly state the measured IC50 obtained for Cc1ccccc1-n1c(Cn2nc(-c3cn[nH]c3)c3c(N)ncnc32)cc2ccccc2c1=O with PI3-kinase p110-alpha/p85-alpha (Homo sapiens, UniProt P42336).
[out] > 10 µM

[in] Kindly state the measured IC50 obtained for Cc1ccccc1-n1c(Cn2nc(C#C[C@@H](C)O)c3c(N)ncnc32)cc2ccccc2c1=O with PI3-kinase p110-alpha/p85-alpha (Homo sapiens, UniProt P42336).
[out] > 10 µM
